Biological target: T1, 4H850-bH
T1 chain: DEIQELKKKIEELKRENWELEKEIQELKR
Test: two-hybrid library CCNG1;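 further: natural log of median RNA to DNA barcode read ratio; higher means stronger binding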
Could you please report measured interaction score for the items listed next?
// no unit, no text: just the number

Exercise: Give the measured interaction score of DEIQELKKKIEELKRENWELEKEIQELKR [4H850-bH] .
Solution: 0.554

Exercise: Give the measured interaction score of DKNQELKKEIEELERKIWELKKENQELKR [4H3628-bH] .
Solution: 0.701

Exercise: Give the measured interaction score of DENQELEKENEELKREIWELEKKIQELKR [4H1222-bH] .
Solution: 0.372

Exercise: Give the measured interaction score of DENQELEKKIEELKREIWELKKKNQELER [4H1359-bH] .
Solution: -0.848

Exercise: Give the measured interaction score of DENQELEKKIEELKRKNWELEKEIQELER [4H1393-bH] .
Solution: 0.00584

Exercise: Give the measured interaction score of DKNQELEKEIEELERKNWELKKEIQELER [4H3129-bH] .
Solution: 0.17

Exercise: Give the measured interaction score of DKNQELKKEIEELERKIWELKKKNQELER [4H3631-bH] .
Solution: -1.94

Exercise: Give the measured interaction score of DKNQELEKKIEELKRENWELEKKIQELKR [4H3414-bH] .
Solution: 0.00973

Exercise: Give the measured interaction score of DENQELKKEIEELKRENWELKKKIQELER [4H1629-bH] .
Solution: 1.03

Exercise: Give the measured interaction score of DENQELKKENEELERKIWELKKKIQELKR [4H1710-bH] .
Solution: 0.221
